Data provenance: patent US8563550B2

# inhibition at 10 µM annotations
- Subject of test: PIM-1 (Homo sapiens, UniProt P11309)
- Construct: histidine tag (C); made in house
- Sequence (P11309 whole entry): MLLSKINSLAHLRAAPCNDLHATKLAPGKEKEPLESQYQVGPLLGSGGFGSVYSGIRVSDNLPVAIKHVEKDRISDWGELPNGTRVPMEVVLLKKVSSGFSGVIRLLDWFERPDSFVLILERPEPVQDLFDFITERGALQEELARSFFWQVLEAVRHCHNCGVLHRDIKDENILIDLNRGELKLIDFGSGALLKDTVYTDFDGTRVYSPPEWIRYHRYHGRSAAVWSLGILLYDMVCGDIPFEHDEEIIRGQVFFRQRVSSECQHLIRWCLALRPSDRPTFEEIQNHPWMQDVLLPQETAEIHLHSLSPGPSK
- Run description: PIM-1 biochemical assay (ADP Hunter assay kit)
- Condition label: compound concentration 10 μM; approximate values; read-out: Percentage Inhibition of PIM-1 at 10 μM
Form entry: enter the amount, then its unit.

Worked cases, inhibition at 10 µM given:
Clc1cccc(-c2cnc3sc(NCCc4ccccn4)nn23)c1: 98%
Cc1cc(-c2cnc3sc(NCC4CC4)nn23)cc(C)c1O: 97%

Q. Please look at this compound and report its inhibition at 10 µM: Fc1ccc(-c2cnc3sc(-c4ccccc4)nn23)cc1
A. 83%

Q. Please look at this compound and report its inhibition at 10 µM: COCCNc1nn2c(-c3ccc4ccccc4c3)cnc2s1
A. 98%

Q. Please look at this compound and report its inhibition at 10 µM: CC(=O)c1cccc(-c2cnc3sc(NCCN4CCOCC4)nn23)c1
A. 77%

Q. Please look at this compound and report its inhibition at 10 µM: c1ccc2cc(-c3cnc4sc(NCC5CC5)nn34)ccc2c1
A. 77%

Q. Please look at this compound and report its inhibition at 10 µM: COCCNc1nn2c(-c3ccc(F)c(Cl)c3)cnc2s1
A. 96%

Q. Please look at this compound and report its inhibition at 10 µM: Fc1ccc(CNc2nn3c(-c4cccnc4)cnc3s2)cc1
A. 73%

Q. Please look at this compound and report its inhibition at 10 µM: CN(C)c1cccc(-c2cnc3sc(Oc4ccc(F)cc4)nn23)c1
A. 89%

Q. Please look at this compound and report its inhibition at 10 µM: Oc1ccc(-c2cnc3sc(Nc4ccc(F)cc4)nn23)cc1
A. 82%

Q. Please look at this compound and report its inhibition at 10 µM: COc1ccc(CNc2nn3c(-c4ccc(F)c(Cl)c4)cnc3s2)cc1
A. 84%
